Origin of measurements: patent US20170107207A1

Tested on: human lymphoma cell line RAMOS cells
Experiment: Cell growth inhibition test using RAMOS cell, ATP assay (CellTiter-Glo)
Assay type: cell-based
Conditions: Homo sapiens, Ramos, 72 h, cultured 3 days, 50% growth inhibition concentration
OBSERVED PROPERTY: GI50 (nM)

compound="[2H]C([2H])([2H])n1c(CCN(C)C)c(NC(=O)CC(C)(C)CNC(=O)c2cc(Br)cnc2OCC)c(=O)n1-c1ccccc1 [Example 44]" observed_property=GI50 units_symbol=nM quantitative_result=470

1: CCOc1cc(F)c(Cl)cc1C(=O)NCC(C)(C)CC(=O)Nc1c(C(C)CN(C)C)n(C)n(-c2ccccc2)c1=O (stereo not shown) [Example 69]
2: CCOc1ncc(Cl)cc1NC(=O)CC(C)(C)CC(=O)Nc1c(C(C)OC)n(C)n(-c2ccccc2)c1=O (stereo not shown) [Example 126]
INPUT: Sort 1 and 2 by GI50 descending and give the first. Select an item and report its label.
OUTPUT: 2
(2: 580 nM, 1: 160 nM)

A: COCOc1cc(F)c(Cl)cc1C(=O)NCC(C)(C)CC(=O)Nc1c(CCN(C)C)n(C)n(-c2ccccc2)c1=O [Example 29]
B: CCOc1ccc(Cl)cc1C(=O)NCC(C)(C)CC(=O)Nc1c(C(C)CNC)n(C)n(-c2ccccc2)c1=O (stereo not shown) [Example 76]
INPUT: API: POST /compare with A and B ; response names the item with higher GI50. Give the label under which the chosen entry appears.
OUTPUT: B
(B: 590 nM, A: 150 nM)
